molecular target: human PAD4 (hPAD4) (Homo sapiens); experiment: RFMS Human PAD4 Functional Assay; type: biochemical; details: hPAD4 RFMS IC50, human PAD4, rapid-fire mass spectrum (RFMS) assay; 5 nM hPAD4, 250 μM BAEE
IC50 under 60 nM gets Yes, anything at or over 60 nM gets No.

COc1cc(C(=O)N2C[C@H]3CC[C@@H]2[C@@H]3N)cc2nc(-c3cc4cc(C)cc(-c5cn[nH]c5)c4n3CC3CC3)n(C)c12: Yes
COc1cc(C(=O)N2CC3CCC2[C@@H]3N)cc2nc(-c3cc4cccc(Nc5ccnc(C)c5)c4n3CC3CC3)n(C)c12 (some centres unmarked): Yes
COc1cc(C(=O)N2C[C@H]3CC[C@@H]2[C@@H]3N)cc2nc(-c3cc4cccc(-c5ccc(O)nc5)c4n3CC3CC3)n(C)c12: No

Q: For `COc1cc(C(=O)N2C[C@H]3CC[C@@H]2[C@@H]3N)cc2nc(-c3cc4cccc(CCO)c4n3CC3CC3)n(C)c12` , is the recorded IC50 below the cut-off of 60 nM?
A: No

Q: For COc1cc(C(=O)N2C[C@H]3CC[C@@H]2[C@@H]3N)cc2nc(-c3cc4cccc(-c5cc[nH]n5)c4n3CC3CC3C)n(C)c12 (some centres unmarked) , is the recorded IC50 below the cut-off of 60 nM?
A: No

Q: For `COc1cc(C(=O)N2C[C@H]3CC[C@@H]2[C@@H]3N)cc2nc(-c3cc4cccc(C5COC5)c4n3CC3CC3)n(C)c12` , is the recorded IC50 below the cut-off of 60 nM?
A: No

* * *

The compounds listed here are annotated with their IC50.
Biological target: human PAD4 (hPAD4) (Homo sapiens)
Assay: RFMS Human PAD4 Functional Assay
Type: biochemical
Details: hPAD4 RFMS IC50, human PAD4, rapid-fire mass spectrum (RFMS) assay; 5 nM hPAD4, 250 μM BAEE
Procedure: RFMS Human PAD4 Functional Assay: Compounds were solubilized in 100% DMSO to achieve a 10 mM compound concentration. Compound stock solutions were stored at RT. A series of dilutions were prepared in DMSO and mixed 8 times with 20 μL mixing volume. Final top concentration of compound in the assay is 50 μM. 0.13 μL of compound solution was added to 13 μL of 10 nM PAD4 in assay buffer. […]
In your response, put the unit directly after the numeric value.

Examples with answers:
COc1cc(C(=O)N2C[C@H]3CC[C@@H]2[C@@H]3N)cc2nc(-c3cc4cccc(-c5ccc(NC(C)=O)nc5)c4n3CC3CC3)n(C)c12: 61 nM
COc1cc(C(=O)N2CC3CCC2[C@@H]3N)cc2nc(-c3cc4cccc(-c5ccc6ccn(C)c6c5)c4n3CC3CC3)n(C)c12 (stereo partly drawn): 110 nM
COc1cc(C(=O)N2C[C@H]3CC[C@@H]2[C@@H]3N)cc2nc(-c3cc4cccc(Nc5c(C)nn(C)c5C)c4n3CC3CC3C)n(C)c12 (stereo partly drawn): 27 nM
COc1cc(C(=O)N2C[C@H]3CC[C@@H]2[C@@H]3N)cc2nc(-c3cc4cccc(C5CN(C(=O)CO)C5)c4n3CC3CC3)n(C)c12: 10 nM
COc1cc(C(=O)N2C[C@H]3CC[C@@H]2[C@@H]3N)cc2nc(-c3cc4cccc(-c5cn[nH]c5)c4n3CC3CC3)n(C)c12: 37 nM
COc1cc(C(=O)N2C[C@H]3CC[C@@H]2[C@@H]3N)cc2nc(-c3cc4cccc(NC5CCN(C)CC5)c4n3CC3CC3)n(C)c12: 59 nM

Now let's try a different one.
Q: Quickly give me recorded IC50 for `COc1cc(C(=O)N2C[C@H]3CC[C@@H]2[C@@H]3N)cc2nc(-c3cc4cccc(-c5ccc(C(N)=O)cc5)c4n3CC3CC3)n(C)c12`
A: 25 nM

* * *

Biological target: human PAD4 (hPAD4) (Homo sapiens, UniProt Q9UM07)
Sequence (Q9UM07 whole entry): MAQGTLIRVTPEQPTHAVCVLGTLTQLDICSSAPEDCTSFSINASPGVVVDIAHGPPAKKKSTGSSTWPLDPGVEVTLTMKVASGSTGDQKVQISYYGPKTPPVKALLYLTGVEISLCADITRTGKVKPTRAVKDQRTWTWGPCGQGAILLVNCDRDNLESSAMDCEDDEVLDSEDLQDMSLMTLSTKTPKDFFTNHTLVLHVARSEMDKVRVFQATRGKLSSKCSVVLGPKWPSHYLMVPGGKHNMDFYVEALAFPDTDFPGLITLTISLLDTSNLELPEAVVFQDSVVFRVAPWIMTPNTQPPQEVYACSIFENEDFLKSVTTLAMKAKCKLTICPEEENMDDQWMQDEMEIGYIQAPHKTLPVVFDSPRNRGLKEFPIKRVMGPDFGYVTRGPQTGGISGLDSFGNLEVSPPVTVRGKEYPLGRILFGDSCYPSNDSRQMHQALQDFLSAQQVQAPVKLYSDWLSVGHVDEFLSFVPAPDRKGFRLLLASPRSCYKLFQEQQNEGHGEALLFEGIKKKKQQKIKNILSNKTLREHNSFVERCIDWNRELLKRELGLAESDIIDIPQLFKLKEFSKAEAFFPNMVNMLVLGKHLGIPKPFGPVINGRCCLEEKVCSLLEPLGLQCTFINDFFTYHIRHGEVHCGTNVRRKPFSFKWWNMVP
Experiment: RFMS Human PAD4 Functional Assay
Type: biochemical
Settings: human PAD4, rapid-fire mass spectrum (RFMS) assay; 5 nM hPAD4, 250 μM BAEE; read-out: hPAD4 RFMS IC50
Method: RFMS Human PAD4 Functional Assay: Compounds were solubilized in 100% DMSO to achieve a 10 mM compound concentration. Compound stock solutions were stored at RT. A series of dilutions were prepared in DMSO and mixed 8 times with 20 μL mixing volume. Final top concentration of compound in the assay is 50 μM. 0.13 μL of compound solution was added to 13 μL of 10 nM PAD4 in assay buffer. […]
The compounds listed here are annotated with their IC50.
Express it in µM; write the number only.

Examples with answers:
COc1cc(C(=O)N2C[C@H]3CC[C@@H]2[C@@H]3N)cc2nc(-c3cc4cccc(C5CC6(C5)CN(C(C)=O)C6)c4n3CC3CC3)n(C)c12: 0.11
COc1cc(C(=O)N2C[C@H]3CC[C@@H]2[C@@H]3N)cc2nc(-c3cc4cccc(Nc5ccccc5CO)c4n3CC3CC3)n(C)c12: 0.191

Q: Quickly give me recorded IC50 for CNC(=O)C1CC(c2cccc3cc(-c4nc5cc(C(=O)N6C[C@H]7CC[C@@H]6[C@@H]7N)cc(OC)c5n4C)n(CC4CC4)c23)C1 (single isomer, unassigned) [Example 43]
A: 0.02

Q: Quickly give me recorded IC50 for CNC(=O)C1CC(c2cccc3cc(-c4nc5cc(C(=O)N6C[C@H](N)C[C@@H](F)C6)cc(OC)c5n4C)n(CC4CC4)c23)C1 (single isomer, unassigned) [Example 112]
A: 0.145

Q: Quickly give me recorded IC50 for `COc1cc(C(=O)N2C[C@H]3CC[C@@H]2[C@@H]3N)cc2nc(-c3cc4cccc(Br)c4n3CC3CC3)n(C)c12`
A: 0.162

* * *

target: human PAD4 (hPAD4) (Homo sapiens); assay: RFMS Human PAD4 Functional Assay; assay type: biochemical; conditions: hPAD4 RFMS IC50, human PAD4, rapid-fire mass spectrum (RFMS) assay; 5 nM hPAD4, 250 μM BAEE
IC50 under 40 nM gets class 1, anything at or over 40 nM gets class 0.

Worked cases, answers included:
COc1cc(C(=O)N2C[C@H]3CC[C@@H]2[C@@H]3N)cc2nc(-c3cc4cccc(C5CN(S(=O)(=O)c6ccccc6)C5)c4n3CC3CC3)n(C)c12 [Example 83]: class 0
COc1cc(C(=O)N2C[C@H]3CC[C@@H]2[C@@H]3N)cc2nc(-c3cc4cccc(C5CNC5)c4n3CC3CC3)n(C)c12 [Example 8]: class 0
COc1ccc(NC(=O)N2CCC(c3cccc4cc(-c5nc6cc(C(=O)N7C[C@H]8CC[C@@H]7[C@@H]8N)cc(OC)c6n5C)n(CC5CC5)c34)CC2)cc1 [Example 246]: class 1
COc1cc(C(=O)N2C[C@H]3CC[C@@H]2[C@@H]3N)cc2nc(-c3cc4cccc(C5CCN(C(=O)COCC(F)(F)F)CC5)c4n3CC3CC3)n(C)c12 [Example 232]: class 1
CCCc1cccc2cc(-c3nc4cc(C(=O)N5C[C@H]6CC[C@@H]5[C@@H]6N)cc(OC)c4n3C)n(CC3CC3)c12 [Example 5]: class 0
COc1cc(C(=O)N2CC3CCC2C3N)cc2nc(-c3cc4cccc(Nc5ccccc5P(C)(C)=O)c4n3CC3CC3)n(C)c12 (stereo not drawn) [Example 166]: class 0

Let us examine a further case.
Q: For COc1cc(C(=O)N2C[C@H]3CC[C@@H]2[C@@H]3N)cc2nc(-c3cc4cccc(-c5cc(F)c(O)cc5F)c4n3CC3CC3)n(C)c12 [Example 94] , is the recorded IC50 below the cut-off of 40 nM?
A: class 0

* * *

The compounds listed here are annotated with their log10(IC50).
biological target: human PAD4 (hPAD4) (Homo sapiens); assay: RFMS Human PAD4 Functional Assay; format: biochemical; conditions: hPAD4 RFMS IC50, human PAD4, rapid-fire mass spectrum (RFMS) assay; 5 nM hPAD4, 250 μM BAEE
Please note: log10 values; quantity IC50; unit nM.

Examples with answers:
COc1cc(C(=O)N2C[C@H]3CC[C@@H]2[C@@H]3N)cc2nc(-c3cc4cccc(C5CCN(C(=O)Nc6ccccc6F)CC5)c4n3CC3CC3)n(C)c12: 0.90
COc1cc(C(=O)N2C[C@H](N)C[C@@H](F)C2)cc2nc(-c3cc4cccc(C5CCN(C(C)=O)CC5)c4n3CC3CC3)n(C)c12 [Example 205]: 1.61
COCCC(=O)N1CCC(c2cccc3cc(-c4nc5cc(C(=O)N6C[C@H]7CC[C@@H]6[C@@H]7N)cc(OC)c5n4C)n(CC4CC4)c23)CC1: 1.76

Q: Quickly give me recorded log10(IC50) for COc1cc(C(=O)N2C[C@H]3CC[C@@H]2[C@@H]3N)cc2nc(-c3cc4cccc(-c5cn[nH]c5)c4n3CC3CC3C)n(C)c12 (stereo partly drawn)
A: 1.90

Q: Quickly give me recorded log10(IC50) for `COc1cc(C(=O)N2C[C@H]3CC[C@@H]2[C@@H]3N)cc2nc(-c3cc4cccc(C5CCN(C(=O)Nc6ccc(F)cc6)CC5)c4n3CC3CC3)n(C)c12`
A: 1.45

Q: Quickly give me recorded log10(IC50) for COc1cc(C(=O)N2C[C@H]3CC[C@@H]2[C@@H]3N)cc2nc(-c3cc4cccc(C5CCC(N)CC5)c4n3CC3CC3)n(C)c12 (stereo partly drawn)
A: 1.20

Q: Quickly give me recorded log10(IC50) for `COc1cc(C(=O)N2C[C@H](N)C[C@@H](F)C2)cc2nc(-c3cc4cccc(-c5ccc6c(c5)CC(=O)N6)c4n3CC3CC3)n(C)c12`
A: 1.85

Q: Quickly give me recorded log10(IC50) for `COc1cc(C(=O)N2C[C@H]3CC[C@@H]2[C@@H]3N)cc2nc(-c3cc4cccc(C5CN(C(=O)Nc6ccc(F)cc6)C5)c4n3CC3CC3)n(C)c12`
A: 1.11
